# key: entry, value: binding signal
# TARGET DESC: OsSMF1 (Oryza sativa, UniProt Q6ZLB0 1-436)
# Sequence: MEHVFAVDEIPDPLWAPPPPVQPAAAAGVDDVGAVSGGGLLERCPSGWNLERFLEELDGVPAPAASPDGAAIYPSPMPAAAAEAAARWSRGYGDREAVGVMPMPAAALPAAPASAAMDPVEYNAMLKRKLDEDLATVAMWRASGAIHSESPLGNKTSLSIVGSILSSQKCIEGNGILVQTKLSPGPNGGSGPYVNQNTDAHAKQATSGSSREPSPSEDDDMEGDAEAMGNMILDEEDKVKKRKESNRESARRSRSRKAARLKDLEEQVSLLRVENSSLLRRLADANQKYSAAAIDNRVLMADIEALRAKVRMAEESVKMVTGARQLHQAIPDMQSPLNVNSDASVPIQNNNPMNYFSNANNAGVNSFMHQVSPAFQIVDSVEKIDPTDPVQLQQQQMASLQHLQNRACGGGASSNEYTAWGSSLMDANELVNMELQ
# PROTOCOL TEXT: protein-binding microarray (RPBM); PBS, 2% BSA, 51.3 ng/ul salmon testes DNA, 50 uM zinc acetate, 200 nM TF, 25 C, 1 h; high values mean tight binding
# ASSAY CONTEXT: protein: recombinant; tags: N-terminal polyhistidine and DsRed monomer fusion (pET32a); chain copies: 2; label: CyDye5-dUTP incorporated in the synthesized complementary strand; 3' TTTTT single-stranded linker to array surface; dsDNA, one strand shown
Whole data set: some 39,000 sequences, median “fluorescence intensity (a.u.)” near 4,300, cut for the highest 2% near 39,000. The sample holds the highest values, similar sequences and a random draw of the others, so the mix is not that of the screen.

INSERT INTO assay_data (ordered_residues, observed_value) VALUES
  ('AATTTAACTCTTTCCCGCGTGGATGGCCGCATATATATGCCGGAGTCACCTAGTGCAG', '3460 fluorescence intensity (a.u.)'),
  ('TTATTAGCAACCACCGTCACATATAAATTAATATGTGCCGCGGAGTCACCTAGTGCAG', '3710 fluorescence intensity (a.u.)'),
  ('CGTGCCGACGCGTGCCTCGCCAACGTGTCGCAACGCCTCACGGAGTCACCTAGTGCAG', '8980 fluorescence intensity (a.u.)'),
  ('GAATAGTAACAATTAGTTTTGTGAATTTTGTGAAATACGCCGGAGTCACCTAGTGCAG', '52300 fluorescence intensity (a.u.)'),
  ('CGTCGCCTCGCCTCGTCACGGCCGCCTCCGCCATCGCCTCCGGAGTCACCTAGTGCAG', '6060 fluorescence intensity (a.u.)'),
  ('TCCATTTTGGACCGCTGACGAGGACGATAGGAGCGTGAGTCGGAGTCACCTAGTGCAG', '4710 fluorescence intensity (a.u.)');

### Prompt Bench note: what binding signal did TATGACATGTGGGCCAACTGCCAAGCAGCCTTACTTGACGCGGAGTCACCTAGTGCAG show?
### Response 3360 fluorescence intensity (a.u.)

### Prompt Query (sequence): CGTGGCACTTAGCGATGAGTGCTGTCGTCAGTAGCAATCCCGGAGTCACCTAGTGCAG ; field requested: binding signal
### Response 4620 fluorescence intensity (a.u.)

### Prompt Would you mind telling me what binding signal value was observed for TTCCCCTTCCGCGACTGCGAGCTTCTCCGCCGCCGCCGCCCGGAGTCACCTAGTGCAG ?
### Response 3160 fluorescence intensity (a.u.)

### Prompt Using the record for AGTATATCCTAAAGCGACACTTTACAGTCTCAAGGACATCCGGAGTCACCTAGTGCAG , report its binding signal.
### Response 11200 fluorescence intensity (a.u.)

### Prompt binding signal lookup needed for ACATACATATATATATATATATATACATACATATATATATCGGAGTCACCTAGTGCAG , thanks.
### Response 3740 fluorescence intensity (a.u.)
